Give Multi-Tox Assay Max Activity (%) for every item shown.
- targetSystem: APOL1 G1 (Homo sapiens, UniProt O14791, I384M/S342G)
- Sequence (O14791 28-398 S342G/I384M): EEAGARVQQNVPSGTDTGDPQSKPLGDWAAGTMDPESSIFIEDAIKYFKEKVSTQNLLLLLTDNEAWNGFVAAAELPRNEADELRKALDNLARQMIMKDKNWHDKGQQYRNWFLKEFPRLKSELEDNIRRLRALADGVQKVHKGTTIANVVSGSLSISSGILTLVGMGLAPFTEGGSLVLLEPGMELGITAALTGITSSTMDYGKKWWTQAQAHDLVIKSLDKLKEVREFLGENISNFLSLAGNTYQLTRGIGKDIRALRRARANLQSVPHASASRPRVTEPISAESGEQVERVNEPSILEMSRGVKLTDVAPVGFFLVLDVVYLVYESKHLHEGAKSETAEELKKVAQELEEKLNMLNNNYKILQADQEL
- experimentalDetails: MultiTox-Fluor Multiplex Cytotoxicity Assay, tet-inducible APOL1 G1 T-REx-HEK293 cells
- Type: cell-based
- Set-up: expressed in transfected cells; host or cells: T-REx HEK293, clone G1 DC3.25 (pAAVS1-Puro-APOL1 G1)
- measurementConditions: Multi-Tox Assay; APOL1 variant not stated in Table 46
Answers are plain numbers, in %.

Solved entries (count: 3):
compound	resultUnits	Multi-Tox Assay Max Activity (%)
CC(=O)NC1([C@@H]2C[C@]3(C[C@H](C)N2)OCCc2cc(Cl)sc23)CC1 [Compound 379]	%	94.0
C[C@H]1C[C@@]2(C[C@@H](c3cn(CC#N)nn3)N1)OCC(F)(F)c1cc(Cl)sc12 [Compound 369]	%	98.0
C[C@H]1C[C@@]2(C[C@@H](c3cn(CCO)nn3)N1)OCC(F)(F)c1cc(Cl)sc12 [Compound 361]	%	98.0

Please state, for each entry, its recorded Multi-Tox Assay Max Activity (%).
1. COc1ccc(Cn2cc([C@@H]3C[C@]4(C[C@H](C)N3)OCC(F)(F)c3cc(Cl)sc34)nn2)cc1F [Compound 362]
2. C[C@H]1C[C@@]2(C[C@@H](c3cn(Cc4ccc5nc(O)[nH]c5c4)nn3)N1)OCC(F)(F)c1cc(Cl)sc12 [Compound 366]

Response:
1: 98.0; 2: 95.0

List reported Multi-Tox Assay Max Activity (%) for each of these compounds:
1. C[C@H]1C[C@@]2(C[C@@H](c3cn(CC4CCC(=O)NC4)nn3)N1)OCC(F)(F)c1cc(Cl)sc12 (some centres unmarked) [Compound 368]
2. C[C@H]1C[C@@]2(C[C@@H](c3cn(CC(C)(C)O)nn3)N1)OCC(F)(F)c1cc(Cl)sc12 [Compound 364]

Response:
96.0
95.0

Hey, APOL1 G1 (Homo sapiens, UniProt O14791, I384M/S342G) data for COC(=O)C1([C@@H]2C[C@]3(C[C@H](C)N2)OCCc2cc(Cl)sc23)CC1 [Compound 372] : Multi-Tox Assay Max Activity (%) came out at 92.0
